Biological target: Muscarinic acetylcholine receptor M4 (Homo sapiens) (UniProt P08173)
Sequence (whole entry): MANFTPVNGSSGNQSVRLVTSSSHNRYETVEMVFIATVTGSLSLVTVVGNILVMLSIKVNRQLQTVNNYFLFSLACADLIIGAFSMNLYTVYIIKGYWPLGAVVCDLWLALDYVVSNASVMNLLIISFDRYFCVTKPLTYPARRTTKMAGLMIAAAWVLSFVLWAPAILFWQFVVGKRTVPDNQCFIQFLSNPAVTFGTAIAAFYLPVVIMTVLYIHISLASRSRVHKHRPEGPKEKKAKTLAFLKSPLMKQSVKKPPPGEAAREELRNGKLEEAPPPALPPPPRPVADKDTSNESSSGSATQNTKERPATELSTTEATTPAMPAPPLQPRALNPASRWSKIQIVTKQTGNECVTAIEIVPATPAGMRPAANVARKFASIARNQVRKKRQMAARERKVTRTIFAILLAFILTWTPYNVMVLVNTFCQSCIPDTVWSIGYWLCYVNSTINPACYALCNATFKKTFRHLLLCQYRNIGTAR
Test: Intrinsic activity at human M4 mAChR expressed in FIpIn-CHO cells assessed as ERK1/2 phosphorylation after 6 mins by Alphascreen assay in the presence of ACh
Format: cell-based
The source made the active and inactive calls. No cut-off for these calls is given here.
PARAMETER MEASURED: log(IA)

The cases that follow already have their log(IA) on record.
CCCC(=O)Nc1c(C(=O)NC2CC2)sc2nc(OC)c(Cl)c(C)c12 :: inactive
CCOc1nc2sc(C(=O)NC3CC3)c(N)c2c(C)c1Cl :: 0.97
COc1cc(C)c2c(N)c(C(=O)NC3CC3)sc2n1 :: 0.66
COc1nc2sc(C(=O)NC3CC3)c(N)c2c(C)c1I :: 0.37
CCNC(=O)c1sc2nc(OC)c(Cl)c(C)c2c1N :: 0.94

## Task Look up log(IA) of COc1nc2sc(C(=O)NC3CC3)c(NC(C)=O)c2c(C)c1Cl and report it.
## Result inactive

## Task Look up log(IA) of CCCCOc1nc2sc(C(=O)NC3CC3)c(N)c2c(C)c1Cl and report it.
## Result -0.51

## Task Look up log(IA) of COc1nc2sc(C(=O)NC3CC3)c(N)c2c(C)c1Br and report it.
## Result 1.25

## Task Look up log(IA) of CCCCCCNC(=O)c1sc2nc(OC)c(Cl)c(C)c2c1N and report it.
## Result -0.35

## Task Look up log(IA) of CCCCCCOc1nc2sc(C(=O)NC3CC3)c(N)c2c(C)c1Cl and report it.
## Result -0.75

## Task Look up log(IA) of Cc1nc(C)c2c(N)c(C(=O)NC3CC3)sc2n1 and report it.
## Result 0.49

## Task Look up log(IA) of Cc1nc2sc(C(=O)NC3CC3)c(N)c2c(C)c1Cl and report it.
## Result 1.11

---

target: Muscarinic acetylcholine receptor M4 (Homo sapiens); assay: Displacement of [3H]NMS from human M4 mAChR expressed in FIpIn-CHO cells after 4 hrs by scintillation counting method in the presence of ACh
pKi: −log10 of the molar value.
Please note: class 1 applies when pKi is 6 or greater, and class 0 applies otherwise.

## Task Determine whether this compound has pKi no lower than 6: CCNC(=O)c1sc2nc(OC)c(Cl)c(C)c2c1N
## Result class 0

## Task Determine whether this compound has pKi no lower than 6: COc1nc2sc(C(=O)NC3CC3)c(N)c2c(C)c1Cl
## Result class 1

## Task Determine whether this compound has pKi no lower than 6: CCOc1nc2sc(C(=O)NC3CC3)c(N)c2c(C)c1Cl
## Result class 1

## Task Determine whether this compound has pKi no lower than 6: CCCCNC(=O)c1sc2nc(OC)c(Cl)c(C)c2c1N
## Result class 0

## Task Determine whether this compound has pKi no lower than 6: COc1nc2sc(C(=O)NC3CC3)c(N)c2c(C)c1Br
## Result class 1

## Task Determine whether this compound has pKi no lower than 6: CCCCOc1nc2sc(C(=O)NC3CC3)c(N)c2c(C)c1Cl
## Result class 0

## Task Determine whether this compound has pKi no lower than 6: COc1nc2sc(C(=O)NC3CC3)c(N)c2c(C)c1I
## Result class 0

---

target: UniProt P08173; experiment: Allosteric modulation of human M4 mAChR expressed in FIpIn-CHO cells assessed as ERK1/2 phosphorylation measured overall cooperativity after 6 mins by Alphascreen assay; format: cell-based
Active and inactive are the calls of the source. The calls are words filed in the database; no cut-off is given here.
PARAMETER MEASURED: Activity

The cases that follow already have their Activity on record.
Cc1nc2sc(C(=O)NC3CC3)c(N)c2c(C)c1Cl :: 77.6
CCCCCCNC(=O)c1sc2nc(OC)c(Cl)c(C)c2c1N :: 1.3
COc1cc(C)c2c(N)c(C(=O)NC3CC3)sc2n1 :: 28.8
COc1nc2sc(C(=O)NC3CC3)c(N)c2c(C)c1Cl :: 240
Cc1nc(C)c2c(N)c(C(=O)NC3CC3)sc2n1 :: 14.1
COc1nc2sc(C(=O)NC3CC3)c(N)c2c(C)c1Br :: 81.3

## Task Look up Activity of COc1nc2sc(C(=O)NC3CC3)c(NC(C)=O)c2c(C)c1Cl and report it.
## Result inactive

## Task Look up Activity of CCCCNC(=O)c1sc2nc(OC)c(Cl)c(C)c2c1N and report it.
## Result 15.5

## Task Look up Activity of CCCCOc1nc2sc(C(=O)NC3CC3)c(N)c2c(C)c1Cl and report it.
## Result 2.5

## Task Look up Activity of CCCCCCOc1nc2sc(C(=O)NC3CC3)c(N)c2c(C)c1Cl and report it.
## Result 2

## Task Look up Activity of CCOc1nc2sc(C(=O)NC3CC3)c(N)c2c(C)c1Cl and report it.
## Result 61.7

## Task Look up Activity of CCCC(=O)Nc1c(C(=O)NC2CC2)sc2nc(OC)c(Cl)c(C)c12 and report it.
## Result inactive

## Task Look up Activity of COc1nc2sc(C(=O)NC3CC3)c(N)c2c(C)c1I and report it.
## Result 9.3

---

For each of the molecules below, state its Intrinsic activity.
molecular target: UniProtKB P08173; experiment: Intrinsic activity at human M4 mAChR expressed in FIpIn-CHO cells assessed as ERK1/2 phosphorylation after 6 mins by Alphascreen assay in the presence of ACh; assay type: cell-based

## Task Look up Intrinsic activity of COc1nc2sc(C(=O)NC3CC3)c(N)c2c(C)c1Cl and report it.
## Result 8.5

## Task Look up Intrinsic activity of CCCCNC(=O)c1sc2nc(OC)c(Cl)c(C)c2c1N and report it.
## Result 2.8

## Task Look up Intrinsic activity of COc1cc(C)c2c(N)c(C(=O)NC3CC3)sc2n1 and report it.
## Result 4.6

## Task Look up Intrinsic activity of CCCCCCOc1nc2sc(C(=O)NC3CC3)c(N)c2c(C)c1Cl and report it.
## Result 0.2

## Task Look up Intrinsic activity of COc1nc2sc(C(=O)NC3CC3)c(N)c2c(C)c1I and report it.
## Result 2.3

---

Molecular target: Muscarinic acetylcholine receptor M4 (Homo sapiens)
Sequence (whole entry): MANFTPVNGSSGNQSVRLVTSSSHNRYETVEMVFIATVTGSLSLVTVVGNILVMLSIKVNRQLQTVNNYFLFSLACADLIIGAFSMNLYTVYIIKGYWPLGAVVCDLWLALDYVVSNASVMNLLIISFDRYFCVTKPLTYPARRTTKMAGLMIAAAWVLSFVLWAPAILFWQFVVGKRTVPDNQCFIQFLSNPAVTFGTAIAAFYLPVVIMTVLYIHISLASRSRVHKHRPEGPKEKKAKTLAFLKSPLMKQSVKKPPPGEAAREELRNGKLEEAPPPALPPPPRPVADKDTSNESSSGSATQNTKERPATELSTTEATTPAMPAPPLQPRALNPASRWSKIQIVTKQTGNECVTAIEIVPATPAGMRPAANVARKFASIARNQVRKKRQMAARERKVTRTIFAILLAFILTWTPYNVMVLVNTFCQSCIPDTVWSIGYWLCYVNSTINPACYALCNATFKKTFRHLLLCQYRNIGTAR
Assay: Intrinsic activity at human M4 mAChR expressed in FIpIn-CHO cells assessed as ERK1/2 phosphorylation after 6 mins by Alphascreen assay in the presence of ACh
Type: cell-based
Activity calls are given as the source filed them. The calls are words filed in the database; no cut-off is given here.
PARAMETER MEASURED: Intrinsic activity

The cases that follow already have their Intrinsic activity on record.
Cc1cc(C)c2c(N)c(C(=O)NC3CC3)sc2n1 :: 5.9
Cc1nc2sc(C(=O)NC3CC3)c(N)c2c(C)c1Cl :: 12.9
CCCCOc1nc2sc(C(=O)NC3CC3)c(N)c2c(C)c1Cl :: 0.3
CCCCCCNC(=O)c1sc2nc(OC)c(Cl)c(C)c2c1N :: 0.4
CCCCCC(=O)Nc1c(C(=O)NC2CC2)sc2nc(OC)c(Cl)c(C)c12 :: inactive
Cc1nc(C)c2c(N)c(C(=O)NC3CC3)sc2n1 :: 3.1
CCOc1nc2sc(C(=O)NC3CC3)c(N)c2c(C)c1Cl :: 9.3
COc1nc2sc(C(=O)NC3CC3)c(NC(C)=O)c2c(C)c1Cl :: inactive

## Task Look up Intrinsic activity of COc1nc2sc(C(=O)NC3CC3)c(N)c2c(C)c1Br and report it.
## Result 17.8

## Task Look up Intrinsic activity of CCNC(=O)c1sc2nc(OC)c(Cl)c(C)c2c1N and report it.
## Result 8.7
